Data provenance is PubChem BioAssay AID1745844.

system: rodent lifetime carcinogenesis bioassay, tumor incidence TD50; assay: carcinogenic potency in animals, long-term in vivo studies, CPDB compilation (AID 1745844); settings: rat; strain Fischer 344; females; in feed; site: liver; lesion: hepatocellular carcinoma + neoplastic nodule; dosed 78 weeks; study length 109 weeks
Outcome measure: TD50

>  <Mol>
Cc1ccc2c(c1[N+](=O)[O-])C(=O)c1ccccc1C2=O

>  <Outcome measure>
TD50

>  <Test result>
324 mg/kg/day

$$$$

----------
system: rodent lifetime carcinogenesis bioassay, tumor incidence TD50; experiment: carcinogenic potency in animals, long-term in vivo studies, CPDB compilation (AID 1745844); conditions: mouse; strain B6C3F1; males; by gavage; site: any site (literature study); lesion: several types; types named in the paper; dosed 102 weeks; study length 103 weeks

>  <Mol>
CC(C)=CCl

>  <Experimental target>
rodent lifetime carcinogenesis bioassay, tumor incidence TD50

>  <TD50 (mg/kg/day)>
13.9

$$$$

----------
test system: rodent lifetime carcinogenesis bioassay, tumor incidence TD50; test: carcinogenic potency in animals, long-term in vivo studies, CPDB compilation (AID 1745844); settings: rat; strain Fischer 344; females; in feed; site: any site (literature study); lesion: several types; types named in the paper; dosed 103 weeks; study length 116 weeks
Active and inactive are the calls of the source. No rule for the calls is given here.
Outcome measure: TD50

>  <Mol>
Nc1ccc(N)cc1

>  <Test result>
247 mg/kg/day (inactive)

$$$$

----------
tested on: rodent lifetime carcinogenesis bioassay, tumor incidence TD50; assay: carcinogenic potency in animals, long-term in vivo studies, CPDB compilation (AID 1745844); conditions: mouse; strain Swiss; females; inhaled; site: lung; lesion: adenocarcinoma; dosed 78 weeks; study length 104 weeks
Active and inactive are the calls of the source. The rule behind the calls is not given here.
Outcome measure: TD50

>  <Mol>
C=CC

>  <Test result>
1.2e+06 mg/kg/day (inactive)

$$$$

----------
tested on: rodent lifetime carcinogenesis bioassay, tumor incidence TD50; assay: carcinogenic potency in animals, long-term in vivo studies, CPDB compilation (AID 1745844); details: rat; strain Fischer 344; males; in feed; site: skin; lesion: squamous-cell papilloma; dosed 12 weeks; study length 103 weeks

>  <Mol>
OCC(CO)(CBr)CBr

>  <Experimental target>
rodent lifetime carcinogenesis bioassay, tumor incidence TD50

>  <TD50, mg/kg/day>
46.2

$$$$

----------
tested on: rodent lifetime carcinogenesis bioassay, tumor incidence TD50; test: carcinogenic potency in animals, long-term in vivo studies, CPDB compilation (AID 1745844); conditions: rat; strain Wistar; females; inhaled; site: lung; lesion: adenosquamous carcinoma; dosed 78 weeks; study length 126 weeks
Outcome measure: TD50

>  <Mol>
O=S(=O)([O-])[O-].[Cd+2]

>  <Test result>
0.112 mg/kg/day

$$$$

----------
tested on: rodent lifetime carcinogenesis bioassay, tumor incidence TD50; assay: carcinogenic potency in animals, long-term in vivo studies, CPDB compilation (AID 1745844); conditions: rat; strain Fischer 344; males; in feed; site: liver; lesion: hepatocellular carcinoma + neoplastic nodule; dosed 101 weeks; study length 101 weeks

>  <Mol>
Cc1cc(C)c(N)cc1C

>  <TD50>
43.8 mg/kg/day

$$$$

----------
system: rodent lifetime carcinogenesis bioassay, tumor incidence TD50; experiment: carcinogenic potency in animals, long-term in vivo studies, CPDB compilation (AID 1745844); conditions: rat; strain Fischer 344; males; in feed; site: liver; lesion: hyperplastic nodule; dosed 104 weeks; study length 104 weeks
Active and inactive are the calls of the source. How the calls were made is not given here.

>  <Mol>
O=[N+]([O-])c1ccc2ncccc2c1

>  <TD50>
267 mg/kg/day (inactive)

$$$$
>  <Mol>
Brc1cc(Br)c2cccnc2c1

>  <TD50>
754 mg/kg/day (inactive)

$$$$
>  <Mol>
Cc1ccc2ncccc2c1

>  <TD50>
123 mg/kg/day (inactive)

$$$$

----------
tested on: rodent lifetime carcinogenesis bioassay, tumor incidence TD50; assay: carcinogenic potency in animals, long-term in vivo studies, CPDB compilation (AID 1745844); conditions: hamster; strain Syrian Golden; males; in drinking water; site: adrenal gland; lesion: cortical adenoma; dosed 103 weeks; study length 103 weeks

>  <Mol>
CCOC(N)=O

>  <Units symbol>
mg/kg/day

>  <TD50>
564

$$$$

----------
tested on: rodent lifetime carcinogenesis bioassay, tumor incidence TD50; assay: carcinogenic potency in animals, long-term in vivo studies, CPDB compilation (AID 1745844); conditions: mouse; strain ddNi; males; in feed; site: liver; lesion: liver-cell adenoma; dosed 160 weeks; study length 160 weeks
Outcome measure: TD50

>  <Mol>
CC[C@@H]1NC(=O)[C@@H]2[C@H](Cl)[C@H](Cl)CN2C(=O)[C@H](CO)NC(=O)C[C@H](c2ccccc2)NC(=O)[C@H](CO)NC1=O

>  <Outcome measure>
TD50

>  <Test result>
48.6 mg/kg/day

$$$$

----------
tested on: rodent lifetime carcinogenesis bioassay, tumor incidence TD50; assay: carcinogenic potency in animals, long-term in vivo studies, CPDB compilation (AID 1745844); conditions: rat; strain Fischer 344; males; in drinking water; site: esophagus; lesion: papilloma; dosed 36 weeks; study length 104 weeks
Outcome measure: TD50 (mg/kg/day)

>  <Compound>
O=NN1CCCC1c1ccc[n+]([O-])c1 (stereo unspecified)

>  <Experimental target>
rodent lifetime carcinogenesis bioassay, tumor incidence TD50

>  <Units symbol>
mg/kg/day

>  <Test result>
2.64

$$$$

----------
system: rodent lifetime carcinogenesis bioassay, tumor incidence TD50; experiment: carcinogenic potency in animals, long-term in vivo studies, CPDB compilation (AID 1745844); conditions: rat; strain Sprague-Dawley; males; inhaled; site: liver; lesion: hepatocellular carcinoma; dosed 52 weeks; study length 130 weeks

>  <Mol>
C=CCl

>  <TD50>
40.8 mg/kg/day

$$$$

----------
test system: rodent lifetime carcinogenesis bioassay, tumor incidence TD50; assay: carcinogenic potency in animals, long-term in vivo studies, CPDB compilation (AID 1745844); conditions: rat; strain Fischer 344; females; by gavage; site: colon; lesion: one or several types; types not named; dosed 40 weeks; study length 104 weeks

>  <Mol>
CCCCN(N=O)C(N)=O

>  <TD50>
2.31 mg/kg/day

$$$$

----------
system: rodent lifetime carcinogenesis bioassay, tumor incidence TD50; assay: carcinogenic potency in animals, long-term in vivo studies, CPDB compilation (AID 1745844); conditions: rat; strain MRC; males; by gavage; site: thyroid gland; lesion: several types; types named in the paper; dosed 72 weeks; study length 80 weeks

>  <Mol>
CC(=O)CN(CC(C)=O)N=O

>  <TD50>
0.968 mg/kg/day

$$$$

----------
tested on: rodent lifetime carcinogenesis bioassay, tumor incidence TD50; assay: carcinogenic potency in animals, long-term in vivo studies, CPDB compilation (AID 1745844); settings: mouse; strain Charles River CD1; males; in feed; site: liver; lesion: several types; types named in the paper; dosed 100 weeks; study length 100 weeks

>  <Mol>
COc1nn(CSP(=S)(OC)OC)c(=O)s1

>  <Experimental target>
rodent lifetime carcinogenesis bioassay, tumor incidence TD50

>  <TD50>
6.04 mg/kg/day

$$$$

----------
Recorded TD50, one value per entry.
test system: rodent lifetime carcinogenesis bioassay, tumor incidence TD50; test: carcinogenic potency in animals, long-term in vivo studies, CPDB compilation (AID 1745844); settings: mouse; strain B6C3F1; females; in feed; site: liver; lesion: hepatocellular carcinoma; dosed 78 weeks; study length 78 weeks
Outcome measure: TD50

>  <Mol>
O=C(O)c1cc(Oc2ccc(C(F)(F)F)cc2Cl)ccc1[N+](=O)[O-]

>  <Test result>
1380 mg/kg/day

$$$$
>  <Mol>
CN1CCCC1=O

>  <Test result>
7330 mg/kg/day

$$$$
>  <Mol>
CN(C)c1ccc(C(=C2C=CC(=[N+](C)C)C=C2)c2ccc(N(C)C)cc2)cc1

>  <Test result>
343 mg/kg/day

$$$$
>  <Mol>
Brc1cc(Br)c(-c2c(Br)c(Br)c(Br)c(Br)c2Br)c(Br)c1Br

>  <Test result>
13.7 mg/kg/day

$$$$

----------
system: rodent lifetime carcinogenesis bioassay, tumor incidence TD50; assay: carcinogenic potency in animals, long-term in vivo studies, CPDB compilation (AID 1745844); conditions: mouse; strain Swiss; females; in feed; site: forestomach; lesion: squamous-cell carcinoma; dosed 46 weeks; study length 55 weeks
Outcome measure: TD50 (mg/kg/day)

>  <Mol>
CC(=O)Nc1nnc(-c2ccc([N+](=O)[O-])o2)s1

>  <Units symbol>
mg/kg/day

>  <Test result>
104

$$$$
>  <Mol>
O=C(Nc1nc(-c2ccc([N+](=O)[O-])o2)cs1)C(F)(F)F

>  <Units symbol>
mg/kg/day

>  <Test result>
38.6

$$$$

----------
test system: rodent lifetime carcinogenesis bioassay, tumor incidence TD50; assay: carcinogenic potency in animals, long-term in vivo studies, CPDB compilation (AID 1745844); settings: rat; strain Fischer 344; females; inhaled; site: all sites; lesion: mononuclear-cell leukemia; dosed 103 weeks; study length 104 weeks
Outcome measure: TD50

>  <Mol>
FC(F)=C(F)F

>  <Test result>
228 mg/kg/day

$$$$
